Provenance of the data: ChEMBL document CHEMBL3988442

testedSystem: AMP-activated protein kinase, AMPK (Homo sapiens) (UniProt P54646+O43741+P54619+Q9UGJ0+Q9Y478+Q13131+Q9UGI9)
assay: AMP-dependent Kinase enzyme assay. An in vitro enzyme assay that detects ADP turnover that is directly proportional to AMPK activity. This uses naive AMPK that is activated during the assay with MK-8722
Format: functional
Design: scale not given: direction of the effect not stated beside the values
appliedConditions: 30 µM
measuredEndpoint: Percent Effect (%)
Number only, in %; omit the unit.

### Prompt Quick check: Percent Effect of CCn1cc(CN2CCC(c3nnc(CN(C)C)n3CC)CC2)cn1 ?
### Response 3.2

### Prompt Quick check: Percent Effect of Cc1nn(C(C)C)c(C)c1NC(=O)c1ccccc1 ?
### Response -0.803

### Prompt Quick check: Percent Effect of CCn1cnnc1CNC(=O)CCC(=O)c1ccc2c(c1)OCCO2 ?
### Response -8.33

### Prompt Quick check: Percent Effect of c1cnnc(N2CCCC(NCc3ccc(-n4ccnc4)cc3)C2)c1 (stereo unspecified) ?
### Response 5.74

### Prompt Quick check: Percent Effect of CN(Cc1ccco1)Cc1cncc2c1CCN(c1ncccn1)C2 ?
### Response -6.54

### Prompt Quick check: Percent Effect of c1cnc(-c2nc(CN3CCC(c4ccn[nH]4)CC3)cs2)nc1 ?
### Response -30.2

----------
testedSystem: Tyrosyl-tRNA synthetase, putative (Trypanosoma cruzi (strain CL Brener))
assay: Trypanosoma cruzi tyrosyl tRNA synthetase (TcYRS) SOP
Type: functional
Parameters: scale not given: direction of the effect not stated beside the values
appliedConditions: 30 µM
Mark y for Percent Effect under 8%, n if at or over.

### Prompt Answer whether the compound Cn1c(C2CC2)nc2c1CCN(CC(=O)Nc1nncs1)C2 has Percent Effect strictly less than 8%
### Response y

### Prompt Answer whether the compound Cn1c(C(F)(F)F)nn(CCNC(=O)CSCc2ccccc2)c1=O has Percent Effect strictly less than 8%
### Response n

### Prompt Answer whether the compound CCc1nc(C2CCCN2C(=O)c2ncoc2CC)no1 (configuration not stated) has Percent Effect strictly less than 8%
### Response n

### Prompt Answer whether the compound CC(=O)N(Cc1noc(C)n1)C1CCN(CCOc2ccccc2)C1 (configuration not stated) has Percent Effect strictly less than 8%
### Response n

### Prompt Answer whether the compound Cc1ccccc1S(=O)(=O)N1CCCCC1c1ccn[nH]1 (configuration not stated) has Percent Effect strictly less than 8%
### Response y

### Prompt Answer whether the compound CN(Cc1cccnc1)CC1CCCN1c1cccnn1 (configuration not stated) has Percent Effect strictly less than 8%
### Response n

### Prompt Answer whether the compound CCc1nc(C)c([C@H]2CN(C)C[C@@H]2C(=O)NCCc2cnccn2)[nH]1 has Percent Effect strictly less than 8%
### Response n

### Prompt Answer whether the compound COc1ccc(OC)c(-c2nc(CN(C)Cc3nncn3C)c(C)o2)c1 has Percent Effect strictly less than 8%
### Response n

### Prompt Answer whether the compound COCCc1noc(CN2CCCCC2Cn2cc(C)cn2)n1 (configuration not stated) has Percent Effect strictly less than 8%
### Response y

### Prompt Answer whether the compound Cn1cc(CNCCOc2ccc(F)c(F)c2)c(-c2cccnc2)n1 has Percent Effect strictly less than 8%
### Response n

### Prompt Answer whether the compound Cc1cc(C(N)=O)ccc1NC(=O)c1nc(N2CCCC2)ncc1Cl has Percent Effect strictly less than 8%
### Response y

### Prompt Answer whether the compound CCNC(=O)NC(=O)CSC(C)c1ccccc1F (configuration not stated) has Percent Effect strictly less than 8%
### Response n

----------
Would you mind telling me the reported Percent Effect of each entry?
testedSystem: Protein translocase subunit SecA (Escherichia coli (strain K12))
assay: Assay to Identify E. coli SecA ATPase Inhibitors
Assay type: functional
Parameters: scale not given: direction of the effect not stated beside the values
appliedConditions: 30 µM
Entries with a potency or affinity are not part of this list.

### Prompt Quick check: Percent Effect of CS(=O)(=O)c1ccc(NC(=O)NCc2ccc3c(c2)CCC3)cn1 ?
### Response -2.45%

### Prompt Quick check: Percent Effect of COCC(=O)N1CCC2(CC1)CC(CC(=O)NC1CC1)c1ccccc12 (stereo not drawn) ?
### Response -8.48%

### Prompt Quick check: Percent Effect of O=C(O)c1cc(-c2cccnc2)cc(S(=O)(=O)N2CCCCCC2)c1 ?
### Response -7.1%

### Prompt Quick check: Percent Effect of Cc1nccn1C1CCCN(C(=O)c2ccc3c(c2)NC(=O)CO3)C1 (stereo not drawn) ?
### Response -3.38%

### Prompt Quick check: Percent Effect of CSCC(=O)N1CCCN(c2ccccc2C)CC1 ?
### Response -7.55%

### Prompt Quick check: Percent Effect of Cc1nc(C2(O)CCCNCC2)sc1CCOc1ccc(Cl)cc1 (stereo not drawn) ?
### Response -4.62%

### Prompt Quick check: Percent Effect of CN(C)C(=O)NC1COC2(CCN(C(=O)Nc3ccccc3)CC2)C1 (stereo not drawn) ?
### Response 5.37%

### Prompt Quick check: Percent Effect of COc1ccc(CNC(=O)NCC2CCOC2)c(C(F)(F)F)c1 (stereo not drawn) ?
### Response -7.19%

### Prompt Quick check: Percent Effect of CS(=O)(=O)NCC1CCCN(C(=O)c2ccc(Cl)o2)C1 (stereo not drawn) ?
### Response 1.32%

### Prompt Quick check: Percent Effect of Cn1ccnc1CN1CCCN(C(=O)c2ccc(Cl)o2)CC1 ?
### Response -4.86%

### Prompt Quick check: Percent Effect of Cc1ccccc1CN1CCCN(C2CCOC2=O)CC1 (stereo not drawn) ?
### Response -1.89%

### Prompt Quick check: Percent Effect of CC(NC(=O)NCc1ccc(Cl)s1)c1ccccn1 (stereo not drawn) ?
### Response -1.22%

### Prompt Quick check: Percent Effect of O=C1CCC2(CCCN(c3ncc(F)cn3)CC2)N1CC1CC1 (stereo not drawn) ?
### Response -4%

### Prompt Quick check: Percent Effect of C[C@@H]1CN(C2(C(=O)N3CCCCCC3)Cc3ccccc3C2)C[C@H](C)O1 ?
### Response -2.48%

### Prompt Quick check: Percent Effect of Cc1cc(-c2ccc(C(=O)O)cc2)nc(C2CCCN(C(C)C)C2)n1 (stereo not drawn) ?
### Response -0.51%

### Prompt Quick check: Percent Effect of O=C(O)c1nnn(-c2ccc(OC(F)(F)F)cc2)c1-c1ccncc1 ?
### Response -2.53%

### Prompt Quick check: Percent Effect of CN(C)CCO[C@@H]1CC[C@H]2[C@H]1OCCN2C(=O)COc1ccccc1 ?
### Response -2.92%

### Prompt Quick check: Percent Effect of O=C(c1ccc(F)cc1Cl)N1CCC(Nc2cccnn2)CC1 ?
### Response -3.11%

### Prompt Quick check: Percent Effect of CC(C)c1ccc(O)c(C(=O)N2CCN(Cc3cscn3)CC2)c1 ?
### Response -1.48%

### Prompt Quick check: Percent Effect of CN(C)c1cc(C(=O)N2CCCC(n3cccn3)C2)ccn1 (stereo not drawn) ?
### Response -2.71%

### Prompt Quick check: Percent Effect of Cc1cc(CN(C)C(=O)NC2CCN(Cc3ccccc3)C2)no1 (stereo not drawn) ?
### Response -1.84%

### Prompt Quick check: Percent Effect of COc1ccc(C(=O)N2C[C@@H](CN3CCOCC3)[C@@H](CO)C2)c(C)c1 ?
### Response -3.12%

### Prompt Quick check: Percent Effect of CS(=O)(=O)N1CC[C@H]2C[C@@H](C(=O)N3CCOCC3)O[C@@H]2C1 ?
### Response -3.64%

----------
testedSystem: Arginase-2, mitochondrial (Homo sapiens)
Sequence (whole entry): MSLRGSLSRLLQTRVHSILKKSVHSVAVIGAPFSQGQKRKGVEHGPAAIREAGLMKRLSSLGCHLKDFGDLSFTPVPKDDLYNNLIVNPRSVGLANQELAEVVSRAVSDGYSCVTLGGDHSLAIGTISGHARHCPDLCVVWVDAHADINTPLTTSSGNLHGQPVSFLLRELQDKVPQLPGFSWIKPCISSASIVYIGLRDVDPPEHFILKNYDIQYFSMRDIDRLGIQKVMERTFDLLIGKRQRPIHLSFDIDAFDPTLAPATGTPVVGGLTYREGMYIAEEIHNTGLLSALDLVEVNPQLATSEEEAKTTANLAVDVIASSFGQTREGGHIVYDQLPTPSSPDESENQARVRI
assay: in vitro enzyme assay to detect the production of urea directly proportional to the activity of Arginase II; further: in the data most compounds retested in dose-response had high values
Type: functional
Parameters: scale not given: direction of the effect not stated beside the values
appliedConditions: 33.3 µM
measuredEndpoint: Percent Effect (%)
Number only, in %; omit the unit.

### Prompt Quick check: Percent Effect of Cc1ccc2c(c1)OCCCC2NCc1nnc2n1CCCCC2 (stereo unspecified) ?
### Response 2.23

### Prompt Quick check: Percent Effect of COCCNC(=O)[C@H]1C[C@@H]2CCN(Cc3ccoc3)C[C@H]2O1 ?
### Response 7.96

### Prompt Quick check: Percent Effect of NC(=O)c1ccc(S(=O)(=O)NC(=O)COc2ccc3c(c2)CCC3)cc1 ?
### Response 0.82

### Prompt Quick check: Percent Effect of Cc1n[nH]c(C)c1C1COCCN1C(=O)c1cc(Cl)c[nH]1 (stereo unspecified) ?
### Response 9.02

### Prompt Quick check: Percent Effect of COc1ccc(NC(C)=O)c(N2CCN(C(C)=O)CC2)n1 ?
### Response 0

### Prompt Quick check: Percent Effect of Cc1nc(CN2CCCC(CCc3c(F)cccc3F)C2)c[nH]1 (stereo unspecified) ?
### Response -6.64

### Prompt Quick check: Percent Effect of CC(CCc1ccco1)NC(=O)Nc1cc(C(F)(F)F)c[nH]c1=O (stereo unspecified) ?
### Response -3.24

### Prompt Quick check: Percent Effect of Cn1cc(C(=O)NC2CCN(Cc3ccn(C)c(=O)c3)CC2)cn1 ?
### Response 4.51

### Prompt Quick check: Percent Effect of CCc1nccn1C1CCCN(C(=O)c2ccc3nncn3c2)C1 (stereo unspecified) ?
### Response -1.78

### Prompt Quick check: Percent Effect of Cc1nc(C2CCCCN2C(=O)c2ccccc2)ncc1C(=O)N(C)C (stereo unspecified) ?
### Response 4.89

### Prompt Quick check: Percent Effect of Cn1ncc2c1NC(=O)CC2c1ccccc1Cl (stereo unspecified) ?
### Response -5.92
